test system: Human immunodeficiency virus 1; assay: Antiviral activity against HIV1 containing reverse transcriptase L100I mutant infected in human MT4 cells assessed as protection against virus-induced cytopathic effect incubated for 5 days by MTT assay; assay type: functional, organism-based; conditions: Human immunodeficiency virus 1, MT4, 120 h
The following compounds are listed with their measured EC50 values.
measure: EC50

{"columns": ["smilesCode", "measure", "result"],
 "data": [
  ["Cc1cc(/C=C/C#N)cc(C)c1Oc1nc(Nc2ccc(C#N)c(F)c2)nc2sccc12", "EC50", "5.55 nM"],
  ["Cc1cc(/C=C/C#N)cc(C)c1Oc1nc(Nc2ccc(C#N)c(F)c2)nc2ccsc12", "EC50", "< 3.62 nM"]
]}
